# Tested on: pSmad2 in IPF PCLS
# Method Description: pSmad2 in precision cut lung slices (PCLS) from IPF patients
# Type: cell-based, human
# Condition Set: Homo sapiens; IPF PCLS, 48 h; read-out: approximate IC50 for reduction of pSmad2
# Protocol: Human fibrotic lung tissue was collected from human explants after transplantation. Tissue which the pathologist deemed suitable for research was inflated with 2–3% low boiling point agarose, with the agarose being allowed to set at 4 °C. PCLS were then cut at 400 μm on a vibrating microtome and cultured in DMEM media.
Readout Kind: IC50

// compound Cc1cc(C)n(-c2cccc([C@H](CC(=O)O)CN3CC[C@@H](CCc4ccc5c(n4)NCCC5)C3)c2)n1 [GSK3008348] , assay pSmad2 in IPF PCLS, IC50 value: ~3 nM
